// data source = patent US11555026B2

TARGET DESC: AHR (UniProt P35869)
TEST NAME: DRE-Luciferase Reporter Assay (Alternate Method, Example 1B)
Assay type: cell-based
Set-up: IC50; other: alternate method: compound and agonist added at plating or after overnight incubation; murine (Hepa1-6, He)
TEST CONDITIONS: alternate method: compound and agonist added at plating or after overnight incubation; murine (Hepa1-6, Hepa-1c1c7) or human (HepG2) DRE-luciferase reporter cells, cell line used not stated
REPORTED ENDPOINT: IC50

Consider the following illustrative entries.
CC(C)n1nccc1C(=O)Nc1ccc2cc(-c3ccccc3)cnc2c1 [I-76] : > 1500 nM
CC#Cc1ccc(NC(=O)c2ccnn2C)c(C)c1 [I-61] : > 1500 nM

Here's the next entry for you.
Data point: Cc1cc(C#Cc2ccccn2)ccc1NC(=O)c1ccnn1C [I-58] ; IC50 = > 1500 nM
